Entry source: ChEMBL document CHEMBL4819120

Tested on: Vero C1008
Assay name: Cytotoxicity against African green monkey Vero E6 cells
Format: cell-based
Stated conditions: chlorocebus sabaeus
Recorded measurements of CC50, one per entry
Parameter: CC50 (µM)

- Cc1cc(C)cc(Nc2nc(C)cc3nn(CC(=O)Nc4cc(F)ccc4F)c(=O)n23)c1: 469
- O=C(Cn1c2ccccc2n2c(=O)cc(-c3ccc(Cl)cc3)nc12)Nc1ccc(F)cc1F: 454
